Entries and their measured EC50 follow.
- TESTED_SYSTEM: T1, recombinant protein containing hST2 extracellular domain with mouse antibody heavy chain Fc tag (hST2-ECD-mFc) (human)
- T1 construct: Used for SPR and for ELISA of chimeric and humanized antibodies; also called human ST2 antigen
- T1 chain: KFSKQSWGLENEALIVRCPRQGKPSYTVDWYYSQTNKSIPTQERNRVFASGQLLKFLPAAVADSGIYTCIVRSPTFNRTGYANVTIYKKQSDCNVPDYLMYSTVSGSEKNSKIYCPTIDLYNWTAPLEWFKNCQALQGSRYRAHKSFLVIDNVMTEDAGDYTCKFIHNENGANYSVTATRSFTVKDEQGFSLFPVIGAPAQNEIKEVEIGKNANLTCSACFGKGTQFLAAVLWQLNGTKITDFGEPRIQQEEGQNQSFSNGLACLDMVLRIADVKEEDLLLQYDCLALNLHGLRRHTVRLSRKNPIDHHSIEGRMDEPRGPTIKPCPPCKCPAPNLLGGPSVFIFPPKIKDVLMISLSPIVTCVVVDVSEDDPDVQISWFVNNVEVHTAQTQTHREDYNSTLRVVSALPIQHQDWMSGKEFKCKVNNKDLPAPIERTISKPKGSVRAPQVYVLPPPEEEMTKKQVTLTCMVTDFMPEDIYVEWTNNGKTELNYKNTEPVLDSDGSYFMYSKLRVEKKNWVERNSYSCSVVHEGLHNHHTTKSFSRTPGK
- MEASUREMENT_PROTOCOL: ELISA, plate coated with hST2-ECD-mFc, antibody heated at 72 °C for 5 min
Quick note: give the figure in pM, leave out the unit.

These recorded examples may help you get a feel for the data.
[
  {
    "BINDER": "GSK3772847 (antibody STLM208 in CN104411333, prepared in-house) (antibody, human IgG2, kappa, V domains shown, Control anti-ST2 antibody) VH: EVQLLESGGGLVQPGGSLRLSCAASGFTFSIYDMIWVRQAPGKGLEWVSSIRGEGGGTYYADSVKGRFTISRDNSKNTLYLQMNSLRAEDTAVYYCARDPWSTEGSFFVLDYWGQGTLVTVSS VL: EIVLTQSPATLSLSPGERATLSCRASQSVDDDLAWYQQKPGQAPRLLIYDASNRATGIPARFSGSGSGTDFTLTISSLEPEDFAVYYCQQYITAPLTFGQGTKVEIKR",
    "EC50 / pM": 188
  },
  {
    "BINDER": "Humanized 31C8-1.2 (antibody, human IgG2, kappa, V domains shown, also called hz31C8-1.2; hz31C81-1.2) VH: QVQLVQSGAKVKKPGATVKISCKASGYIFIDSEMHWVQQAPGKGLEWMGAIDPETGDTVYAKKFKGRVTITADKSSSTAYMELSSLRSEDTAVYYCTGSTTDYYFAYWGQGTLVTVSS VL: DIQMTQSPSSLSASVGDRVTITCRSSKSLLHSNGIIYLYWYQQKPGKAPKLLIYQLSNLASGVPSRFSSSGSGTDFTLTISSLQPEDFATYYCAQNLELPFTFGQGTKVEIKR",
    "EC50 / pM": 110
  },
  {
    "BINDER": "Chimeric 31C8 (antibody, human IgG2, kappa, V domains shown, also called xi31C8) VH: QVQLQQSGPELVRPGASVTLSCKASGYIFIDSEMHWVKQTPVHGLEWIGAIDPETGDTVYNQKFKGKATLTADKSSSTASMELSSLTSEDSAVYYCTGSTTDYYFAYWGQGTTLTVSS VL: DIVMTQAAFSNPVTLGTSASISCRSSKSLLHSNGIIYLYWYLQKPGQSPQLLIYQMSNLASGVPDRFSSSGSGTDFTLRISRVEAEDVGVYYCAQNLELPFTFGSGTKLEIKR",
    "EC50 / pM": 86.3
  }
]

Next:
The binder identified as Humanized 31C8-1.1 (antibody, human IgG2, kappa, V domains shown, also called hz31C8-1.1; hz31C81-1.1) VH: EVQLVQSGAEVKKPGATVKISCKASGYIFIDSEMHWVQQAPGKGLEWMGAIDPETGDTVYAEKFQGRVTITADKSSSTAYMELSSLRSEDTAVYYCTGSTTDYYFAYWGQGTLVTVSS VL: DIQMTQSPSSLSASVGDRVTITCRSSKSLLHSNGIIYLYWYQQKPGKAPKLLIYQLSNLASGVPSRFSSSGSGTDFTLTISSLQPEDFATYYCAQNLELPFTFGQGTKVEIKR registered its EC50 at 96.8

The measurements presented in this section are drawn from patent US20230272086A1.
